Field: IC50. Provide a value for each of the compounds that follow.
Molecular target: UniProt:O15530
Sequence (O15530 51-556 limits assumed): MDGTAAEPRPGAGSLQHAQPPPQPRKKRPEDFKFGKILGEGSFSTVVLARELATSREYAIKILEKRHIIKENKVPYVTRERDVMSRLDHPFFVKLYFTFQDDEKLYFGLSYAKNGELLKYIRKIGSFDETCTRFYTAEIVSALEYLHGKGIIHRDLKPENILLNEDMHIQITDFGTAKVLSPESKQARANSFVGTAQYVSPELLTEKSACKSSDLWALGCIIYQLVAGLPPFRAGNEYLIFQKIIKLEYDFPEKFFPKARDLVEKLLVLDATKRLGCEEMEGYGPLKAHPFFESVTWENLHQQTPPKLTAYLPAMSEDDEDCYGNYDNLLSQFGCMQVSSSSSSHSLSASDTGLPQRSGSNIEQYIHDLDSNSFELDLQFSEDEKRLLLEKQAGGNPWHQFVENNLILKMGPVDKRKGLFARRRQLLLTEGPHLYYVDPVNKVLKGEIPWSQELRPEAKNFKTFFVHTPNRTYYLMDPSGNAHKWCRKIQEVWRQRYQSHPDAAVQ
Kindly answer with a numeric value in nM, unit omitted.

Q) If you can, please state the reported IC50 value of CC(C)[C@](O)(c1ccccc1)c1cc(-c2c[nH]c3ncc(-c4cnn(C)c4)cc23)nc(N)n1 (single isomer, unassigned) .
A) 260

Q) Queued: CCCC(OCOC)(c1ccncc1)c1cc(-c2c[nH]c3ncc(-c4cnn(C)c4)cc23)nc(N)n1 (centres unmarked)
A) 56

Q) Now consider CC(O)(c1ccccc1)c1cc(-c2c[nH]c3ncc(-c4cnn(CCO)c4)cc23)nc(N)n1 (single isomer, unassigned) [A97] and answer again.
A) 38

Q) Another compound: Cn1cc(-c2cnc3[nH]cc(-c4cc([C@](O)(c5ccccc5)C(F)(F)F)nc(N)n4)c3c2)cn1 (single isomer, unassigned)
A) 170

Q) Try this compound next: COCO[C@](C)(c1ccncc1)c1cc(-c2c[nH]c3ncc(Br)cc23)nc(N)n1 (single isomer, unassigned)
A) 210

Q) And for COCOC(C)(c1cc(-c2c[nH]c3ncc(-c4cnn(C)c4)cc23)nc(N)n1)c1ccccc1F (centres unmarked) ?
A) 36

Q) Can you handle CO[C@](C)(c1ccccc1)c1cc(-c2c[nH]c3ncc(-c4cnn(CCO)c4)cc23)nc(N)n1 (single isomer, unassigned) next?
A) 35

Q) Please do the same for `CC[C@@](OCOC)(c1cccc(F)c1)c1cc(-c2c[nH]c3ncc(Br)cc23)nc(N)n1` as well.
A) 650

Q) Moving on to the next compound: COCOC(C)(c1ccccc1)c1cc(-c2c[nH]c3ncc(-c4cnn(CCC(N)=O)c4)cc23)nc(N)n1 (centres unmarked)
A) 68

Q) Try this compound too: Cn1cc(-c2cnc3[nH]cc(-c4cc(C(C)(O)c5cccnc5)nc(N)n4)c3c2)cn1 (single isomer, unassigned) [A57]
A) 28

Q) Then CCCC(O)(c1cccc(F)c1)c1cc(-c2c[nH]c3ncc(-c4cnn(C)c4)cc23)nc(N)n1 (centres unmarked) ?
A) 44

Q) Another: Cn1cc(-c2cnc3[nH]cc(-c4cc(C(C)(O)c5ccccc5F)nc(N)n4)c3c2)cn1 (single isomer, unassigned) [A104]
A) 16

Q) Then this compound: CCCC(O)(c1cc(-c2c[nH]c3ncc(-c4cnn(C)c4)cc23)nc(N)n1)c1ccccc1F (centres unmarked)
A) 29
